- ASSAY COMMENT: Displacement of [3H]MK-801 from NMDAR in Sprague-Dawley rat cerebral cortex homogenates after 2 hrs by liquid scintillation counting
- Type: tissue-based

COMPOUND	RESULT UNITS	LIMIT QUALIFIER	Ki
COc1ccc2c3c1O[C@H]1C[C@@H](O)C=C[C@@]31CCN(CCCCCNC13CC4CC(C)(CC(C)(C4)C1)C3)C2	µM	>	10
COc1ccc2c3c1O[C@H]1C[C@@H](O)C=C[C@@]31CCN(CCCCCCNC13CC4CC(C)(CC(C)(C4)C1)C3)C2	µM	=	4.6
COc1ccc2c3c1O[C@H]1C[C@@H](O)C=C[C@@]31CCN(CCCCC(=O)NC13CC4CC(C)(CC(C)(C4)C1)C3)C2	µM	>	10
COc1ccc2c3c1O[C@H]1C[C@@H](O)C=C[C@@]31CCN(CCSCCNC13CC4CC(C)(CC(C)(C4)C1)C3)C2	µM	>	10
COc1ccc2c3c1O[C@H]1C[C@@H](O)C=C[C@@]31CCN(CCCNCCCNC13CC4CC(C)(CC(C)(C4)C1)C3)C2	µM	=	5.41
CC12CC3CC(C)(C1)CC(N)(C3)C2 [MEMANTINE]	µM	=	1.16
COc1ccc2c3c1O[C@H]1C[C@@H](O)C=C[C@@]31CCN(CCOCCNC13CC4CC(C)(CC(C)(C4)C1)C3)C2	µM	>	10

The measured values listed here are drawn from ChEMBL document CHEMBL2177014.
